System: M. smegmatis mc2155
assay-details: Growth analysis (Bioscreen C, log-phase growth rate)
Assay type: cell-based
experimental-context: Mycolicibacterium smegmatis, MC2155; 30 μM, log-phase growth rate vs 1% DMSO
measured-metric: inhibition at 30 µM

### Prompt Which inhibition at 30 µM value belongs to `COc1cc(NS(=O)(=O)c2ccc(C)cc2)ccc1Nc1c2ccccc2nc2ccccc12` ?
### Response 55 to 60%

### Prompt Which inhibition at 30 µM value belongs to `COc1cc(NS(=O)(=O)c2ccc([N+](=O)[O-])cc2)ccc1Nc1c2ccccc2nc2ccccc12` ?
### Response 55 to 60%

### Prompt Which inhibition at 30 µM value belongs to `COc1cc(NS(=O)(=O)c2ccc(Cl)cc2)ccc1Nc1c2ccccc2nc2ccccc12` ?
### Response 20 to 30%

### Prompt Which inhibition at 30 µM value belongs to `COc1cc(NS(C)(=O)=O)ccc1Nc1c2ccccc2nc2ccccc12` ?
### Response 20 to 30%

### Prompt Which inhibition at 30 µM value belongs to `COc1cc(NS(=O)(=O)c2ccccc2)ccc1Nc1c2ccccc2nc2ccccc12` ?
### Response 20 to 30%
